# Subject of test: D(1A) dopamine receptor (Homo sapiens)
# Sequence (P21728 whole entry): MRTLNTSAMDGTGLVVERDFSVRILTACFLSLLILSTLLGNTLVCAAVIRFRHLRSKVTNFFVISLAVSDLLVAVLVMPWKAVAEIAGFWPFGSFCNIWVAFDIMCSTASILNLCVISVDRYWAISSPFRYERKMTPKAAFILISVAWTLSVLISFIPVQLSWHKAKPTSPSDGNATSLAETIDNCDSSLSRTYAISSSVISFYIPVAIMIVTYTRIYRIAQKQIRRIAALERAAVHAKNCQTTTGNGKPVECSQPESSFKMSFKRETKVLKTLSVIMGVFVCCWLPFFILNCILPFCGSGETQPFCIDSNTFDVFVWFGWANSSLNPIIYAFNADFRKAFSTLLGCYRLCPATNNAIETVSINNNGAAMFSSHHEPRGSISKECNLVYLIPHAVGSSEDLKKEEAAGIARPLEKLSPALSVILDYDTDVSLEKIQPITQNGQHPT
pKi: −log10 of the molar value.
Assay readout: pKi

// worked examples, pKi included
COc1ccc(F)cc1[C@H]1C[C@@H]1CNCCCOc1ccc2ccc(=O)[nH]c2c1
< 5.00
COc1ccc(F)cc1[C@H]1C[C@@H]1CNCCCCOc1ccc2ccc(=O)[nH]c2c1
< 5.00
CN1CCc2ccccc2Cc2[nH]c3ccccc3c2CC1
8.53
COc1ccc(Cl)cc1[C@H]1C[C@@H]1CNCCCOc1ccc2ccc(=O)[nH]c2c1
< 5.00

Now look at this one.
Field: pKi (D(1A) dopamine receptor (Homo sapiens)). Entry: "COc1ccc(Cl)cc1[C@H]1C[C@@H]1CNCCCCOc1ccc2c(c1)NC(=O)CC2" < 5.00

###

Let's go through some Ki measurements on UniProt P14416 together.
Assay readout: Ki (nM)

Record excerpt, results attached:
COc1ccc(F)cc1C1CC1CNCCCOc1ccc2c(c1)NC(=O)CC2 (stereo not drawn)
27.4
CN(C)C(=O)N[C@H]1CC[C@H](CCNCC2CC2c2cccc3c2OCCO3)CC1 (stereo partly drawn)
2310
O=c1ccc2ccc(OCCCCNCC3CC3c3cccc4c3OCCO4)cc2[nH]1 (stereo not drawn)
178
O=C1CCc2ccc(OCCCCNCC3CC3c3cccc4c3OCCO4)cc2N1 (stereo not drawn)
384

a. COc1ccccc1C1CC1CNCCCCCOc1ccc2c(c1)NC(=O)CC2 (stereo not drawn)
b. COc1ccccc1C1CC1CNCCCOc1ccc2ccc(=O)[nH]c2c1 (stereo not drawn)
c. CN(C)C(=O)N[C@H]1CC[C@H](CCNCC2CC2c2cccc(Cl)c2Cl)CC1 (stereo partly drawn)
d. COc1ccccc1C1CC1CNC/C=C/COc1ccc2c(c1)NC(=O)CC2 (stereo not drawn)
Order the records, beginning with the lowest Ki and ending with the highest. # output: labels, in the requested order b, a, d, c

###

# Subject of test: D(2) dopamine receptor (Homo sapiens, UniProt P14416)
# Sequence (P14416 whole entry): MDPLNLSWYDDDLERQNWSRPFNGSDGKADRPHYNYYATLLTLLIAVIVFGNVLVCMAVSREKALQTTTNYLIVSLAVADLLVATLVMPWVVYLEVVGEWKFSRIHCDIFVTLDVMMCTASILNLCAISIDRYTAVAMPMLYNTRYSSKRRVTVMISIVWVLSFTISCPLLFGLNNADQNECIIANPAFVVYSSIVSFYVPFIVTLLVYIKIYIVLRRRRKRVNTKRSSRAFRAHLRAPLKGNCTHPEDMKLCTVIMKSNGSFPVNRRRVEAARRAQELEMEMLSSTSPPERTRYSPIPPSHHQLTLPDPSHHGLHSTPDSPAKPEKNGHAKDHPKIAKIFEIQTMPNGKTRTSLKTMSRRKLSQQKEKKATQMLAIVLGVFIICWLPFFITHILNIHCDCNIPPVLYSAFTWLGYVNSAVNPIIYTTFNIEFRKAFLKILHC
pEC50: −log10 of the molar value.
Assay readout: pEC50

The examples below pair each entry with its known result.
O=C1CCc2ccc(OCCCCNCC3CC3c3cccc4c3OCCO4)cc2N1 (stereo not given)
7.21
COc1ccccc1C1CC1CNCCCCOc1ccc2ccc(=O)[nH]c2c1 (stereo not given)
7.49
O=c1ccc2ccc(OCCCCNCC3CC3c3cccc4c3OCCO4)cc2[nH]1 (stereo not given)
7.63
CSc1ccccc1C1CC1CNCCCCOc1ccc2ccc(=O)[nH]c2c1 (stereo not given)
8.13
COc1ccc(F)cc1C1CC1CNCCCOc1ccc2c(c1)NC(=O)CC2 (stereo not given)
7.83

a. COc1ccccc1C1CC1CNCCCOc1ccc2c(c1)NC(=O)CC2 (stereo not given)
b. COc1ccccc1C1CC1CNCCCCCOc1ccc2c(c1)NC(=O)CC2 (stereo not given)
Which value of pEC50 is numerically greater: that of a or that of b ? In your reply, give the label of the chosen option. a
(a: 8.00, b: 6.38)

a. COc1ccccc1C1CC1CNCCCOc1ccc2ccc(=O)[nH]c2c1 (stereo not given)
b. CSc1ccccc1C1CC1CNCCCCOc1ccc2c(c1)NC(=O)CC2 (stereo not given)
c. O=c1ccc2ccc(OCCCCN3CCN(c4cccc5sccc45)CC3)cc2[nH]1
Kindly order the items shown according to pEC50, from the highest value down. To answer, arrange all of the labels according to the requested order. a, c, b
(a: 8.15, c: 7.79, b: 7.45)

###

// D(2) dopamine receptor (Homo sapiens) pEC50 records
pEC50: −log10 of the molar value.
Assay readout: pEC50

Known pEC50 results, listed for orientation:
COc1ccccc1C1CC1CNCCCOc1ccc2c(c1)NC(=O)CC2 (stereo unspecified)
8.03
COc1ccccc1C1CC1CNCCCOc1ccc2ccc(=O)[nH]c2c1 (stereo unspecified)
7.95

A. COc1ccccc1C1CC1CNCCCCCOc1ccc2c(c1)NC(=O)CC2 (stereo unspecified)
B. O=c1ccc2ccc(OCCCCN3CCN(c4cccc5sccc45)CC3)cc2[nH]1
C. COc1ccccc1C1CC1CNC/C=C/COc1ccc2c(c1)NC(=O)CC2 (stereo unspecified)
D. CSc1ccccc1C1CC1CNCCCCOc1ccc2ccc(=O)[nH]c2c1 (stereo unspecified)
Number of compounds to sort: 4. Sort criterion: pEC50, ascending. Hello, could you send the labels back in the order asked? Thank you. A, C, B, D
(A: 6.05, C: 7.64, B: 7.99, D: 8.54)

a. O=C1CCc2ccc(OCCCCNCC3CC3c3cccc4c3OCCO4)cc2N1 (stereo unspecified)
b. CSc1ccccc1C1CC1CNCCCCOc1ccc2c(c1)NC(=O)CC2 (stereo unspecified)
Which value of pEC50 is greater, the one for a or the one for b ? # reply format: chosen label b
(b: 7.72, a: 7.02)

P. COc1ccccc1C1CC1CNCCCCOc1ccc2ccc(=O)[nH]c2c1 (stereo unspecified)
Q. COc1ccc(F)cc1C1CC1CNCCCOc1ccc2c(c1)NC(=O)CC2 (stereo unspecified)
# return whichever of P and Q has the smaller pEC50 When you have decided, please share the label of that item. P
(P: 7.58, Q: 8.46)

###

D(4) dopamine receptor (Homo sapiens, UniProt P21917) measurements of Ki, listed per entry.
Sequence (P21917 whole entry): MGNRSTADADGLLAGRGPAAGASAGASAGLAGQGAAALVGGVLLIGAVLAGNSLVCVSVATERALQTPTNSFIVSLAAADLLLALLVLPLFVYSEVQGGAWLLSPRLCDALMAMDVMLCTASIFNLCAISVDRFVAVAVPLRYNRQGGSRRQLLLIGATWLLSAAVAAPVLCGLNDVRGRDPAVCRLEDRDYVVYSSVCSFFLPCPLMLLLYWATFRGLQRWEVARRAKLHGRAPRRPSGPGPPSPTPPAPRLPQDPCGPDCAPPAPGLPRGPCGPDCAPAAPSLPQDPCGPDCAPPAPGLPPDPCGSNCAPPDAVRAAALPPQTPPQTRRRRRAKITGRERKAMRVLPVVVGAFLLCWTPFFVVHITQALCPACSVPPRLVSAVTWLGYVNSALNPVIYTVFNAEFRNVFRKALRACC
Assay readout: Ki (nM)

A. COc1ccc(Cl)cc1[C@H]1C[C@@H]1CNCCCCOc1ccc2c(c1)NC(=O)CC2
B. COc1ccc(Cl)cc1[C@H]1C[C@@H]1CNCCCOc1ccc2ccc(=O)[nH]c2c1
Input pair: A , B . Output: entry with lower Ki. Select an item and report its label. A
(A: 373 nM, B: 604 nM)

###

# Run description: in vitro
# Condition description: mouse, liver microsomes
# Description: Metabolic stability in mouse liver microsomes assessed as half life preincubated for 5 mins followed by NADPH addition measured after 10 mins by LC-MS analysis
Assay readout: half-life at 10 min (min)

CN(C)C(=O)N[C@H]1CC[C@H](CCN2CCN(c3cccc(Cl)c3Cl)CC2)CC1
22.3
O=c1ccc2ccc(OCCCCN3CCN(c4cccc5sccc45)CC3)cc2[nH]1
17.2

###

Please consider the recorded Ki for UniProt:P28223 in what follows.
Sequence (P28223 whole entry): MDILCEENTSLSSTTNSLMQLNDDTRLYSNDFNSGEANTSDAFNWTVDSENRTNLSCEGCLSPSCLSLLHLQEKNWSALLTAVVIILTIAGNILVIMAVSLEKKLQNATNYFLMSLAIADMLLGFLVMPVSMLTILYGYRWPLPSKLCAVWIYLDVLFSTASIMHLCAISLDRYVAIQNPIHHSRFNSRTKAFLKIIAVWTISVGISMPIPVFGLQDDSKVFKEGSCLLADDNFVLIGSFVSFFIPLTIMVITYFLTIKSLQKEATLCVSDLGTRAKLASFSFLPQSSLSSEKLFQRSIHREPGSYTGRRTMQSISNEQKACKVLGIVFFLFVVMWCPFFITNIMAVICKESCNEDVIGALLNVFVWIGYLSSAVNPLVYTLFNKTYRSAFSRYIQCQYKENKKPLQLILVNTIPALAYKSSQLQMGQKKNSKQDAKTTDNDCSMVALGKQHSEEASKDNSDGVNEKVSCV
Assay readout: Ki (µM)

COc1ccc(Cl)cc1[C@H]1C[C@@H]1CNCCCCOc1ccc2c(c1)NC(=O)CC2
2.09

I. COc1ccc(F)cc1[C@H]1C[C@@H]1CNCCCOc1ccc2ccc(=O)[nH]c2c1
II. COc1ccc(Cl)cc1[C@H]1C[C@@H]1CNCCCOc1ccc2ccc(=O)[nH]c2c1
Lower Ki: I or II ? Give the label under which the chosen entry appears. I
(I: 0.52 µM, II: 1.16 µM)

###

# Run description: in vitro
# Condition description: human, liver microsomes
# Description: Metabolic stability in human liver microsomes assessed as half life preincubated for 5 mins followed by NADPH addition measured after 10 mins by LC-MS analysis
Assay readout: half-life at 10 min (min)

O=c1ccc2ccc(OCCCCN3CCN(c4cccc5sccc45)CC3)cc2[nH]1
27.2
CN(C)C(=O)N[C@H]1CC[C@H](CCN2CCN(c3cccc(Cl)c3Cl)CC2)CC1
32.7
